target: CRF1R; experiment: cell-based or functional assay
Ends that are not written are not given here.
recorded_endpoint: CRF1R EC50 (nM)

- binder: "ZGPPISIDLPTRLLRKMIEIEKQEKEKQQAANNRLLLDTI (C-terminal amide) [SEQ ID NO 60]"
  comparison_operator: ">"
  reported_result: 100
- binder: "IVLSLDVPIGLLQILLEQERAEAAREQATTNARILARV-NH2 [SEQ ID NO 113]"
  comparison_operator: ">"
  reported_result: 100
- binder: "ZGPPISIDLPFQLLRKMIEIEKQEKEKQQATTNRLLLARV (C-terminal amide) [SEQ ID NO 19]"
  comparison_operator: "="
  reported_result: 232
- binder: "ZGPPISIDLPQILLRKMIEIEKQEKEKQQAANNRLLLDTI (C-terminal amide) [SEQ ID NO 199]"
  comparison_operator: "="
  reported_result: 706
- binder: "ZGPPISIDLPFQLLRKMIEIEKQEKEKQQATTNARLLDRV (C-terminal amide) [SEQ ID NO 22]"
  comparison_operator: "="
  reported_result: 1000
- binder: "DNPSLSIDLPFLLLRTLLELARTQSQRERAEQNAIIFASV-NH2 [SEQ ID NO 180]"
  comparison_operator: "="
  reported_result: 125
- binder: "DNPSLSIDLPTYLLRTLLELARTQSQRERAEQNAIIFASV-NH2 [SEQ ID NO 173]"
  comparison_operator: "="
  reported_result: 1000
- binder: "IVLSLDVPIGLLQILLEQTKARAAREQATTNARILARV-NH2 [SEQ ID NO 129]"
  comparison_operator: ">"
  reported_result: 100
- binder: "ZGPPISIDLPFILLRKMIEIEKQEKEKQQAANNRLLLDTI (C-terminal amide) [SEQ ID NO 189]"
  comparison_operator: "="
  reported_result: 62.2
- binder: "ZGPPISIDLPLQLLRKMIEIEKQEKEKQQATTNARILARV (C-terminal amide) [SEQ ID NO 144]"
  comparison_operator: "="
  reported_result: 567
- binder: "ZGPPISIDLPFQLLRKMIEIEKQEKEKQQATNNRLLLATV (C-terminal amide) [SEQ ID NO 12]"
  comparison_operator: "="
  reported_result: 928
- binder: "ZGPPISIDLPILLLRKMIEIEKQEKEKQQAANNRLLLDTI (C-terminal amide) [SEQ ID NO 35]"
  comparison_operator: ">"
  reported_result: 1000
- binder: "ZGPPISIDLPIYLLRKMIEIEKQEKEKQQATTNARILARV (C-terminal amide) [SEQ ID NO 149]"
  comparison_operator: "="
  reported_result: 1000
- binder: "ZGPPISIDVPFQLLRKMIEIEKQEKEKQQATTNARILARV (C-terminal amide) [SEQ ID NO 172]"
  comparison_operator: "="
  reported_result: 1000
- binder: "ZGPPISIDLPFQLLRKMIEIEKQEKEKQQATTNRLLLDTI (C-terminal amide) [SEQ ID NO 13]"
  comparison_operator: "="
  reported_result: 97.7
- binder: "ZGPPISIDLPISLLRKMIEIEKQEKEKQQAANNRLLLDTI (C-terminal amide) [SEQ ID NO 53]"
  comparison_operator: ">"
  reported_result: 1000
- binder: "ZGPPISIDLPTKLLRKMIEIEKQEKEKQQAANNRLLLDTI (C-terminal amide) [SEQ ID NO 45]"
  comparison_operator: ">"
  reported_result: 1000
- binder: "ZGPPISIDLPTGLLRKMIEIEKQEKEKQQAANNRLLLDTI (C-terminal amide) [SEQ ID NO 73]"
  comparison_operator: ">"
  reported_result: 100
- binder: "ZGPPISIDLPYVLLRKMIEIEKQEKEKQQAANNRLLLDTI (C-terminal amide) [SEQ ID NO 201]"
  comparison_operator: "="
  reported_result: 99.6
- binder: "DNPSLSIDLPLHLLRTLLELARTQSQRERAEQNAIIFASV-NH2 [SEQ ID NO 179]"
  comparison_operator: "="
  reported_result: 477
- binder: "ZGPPISIDLPHWLLRKMIEIEKQEKEKQQAANNRLLLDTI (C-terminal amide) [SEQ ID NO 186]"
  comparison_operator: "="
  reported_result: 323
- binder: "IVLSLDVPIGLLQILLEQAKADAAREQATTNARILARV-NH2 [SEQ ID NO 131]"
  comparison_operator: ">"
  reported_result: 100
- binder: "SQEIVLSLDVPIGLLREVLEMTKADQLAQQAHSNRKLLDIA-NH2 [SEQ ID NO 7]"
  comparison_operator: "="
  reported_result: 100
- binder: "IVLSLDVPIGLLQTLLELARTQSQRERAEQNRIIFDSV-NH2 [SEQ ID NO 160]"
  comparison_operator: ">"
  reported_result: 100
